Molecular target: T1, recombinant human TIGIT (human, UniProt Q495A1 22-141, limits assumed)
T1 construct: recombinant human TIGIT used in Carterra SPR; also called hTIGIT
T1 sequence (looked up): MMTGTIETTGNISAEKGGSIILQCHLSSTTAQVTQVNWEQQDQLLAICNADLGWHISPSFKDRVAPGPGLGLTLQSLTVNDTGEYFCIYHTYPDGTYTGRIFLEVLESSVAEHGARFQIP
Assay: SPR Carterra, average
measured.attribute: koff
State the value with its unit after it.

Worked set:
QUERY: # input binder: TIGIT-SC114 (Fc fusion, VHH-Fc fusion in assay) VHH: EVQLVESGGGLVQPGGSLRLSCAASGNTFSGGFMGWFRQAPGKEREWVASVLRGGYTWYADSVKGRFTISADNSKNTAYLQMNSLKPEDTAVYYCATVGGRQRTLFDDWGQGTLVTVSS ; wanted: its koff
RESULT: 0.00227 s⁻¹

QUERY: // same read-out, input: TIGIT-SC91 (Fc fusion, VHH-Fc fusion in assay) VHH: EVQLVESGGGLVQPGGSLRLSCAASGFTFSNYAMGWFRQAPGKEREFVAAINWNSRSTYYADSVKGRFTISADNSKNTAYLQMNSLKPEDTAVYYCARWRSIWSGYDDYYYMDVWGQGTLVTVSS
RESULT: 0.0071 s⁻¹

QUERY: Subsequent entry: TIGIT-SC41 (Fc fusion, VHH-Fc fusion in assay) VHH: EVQLVESGGGLVQPGGSLRLSCAASGMTTIGPMGWFRQAPGKEREFVASIAWGDGNTYYADSVKGRFTISADNSKNTAYLQMNSLKPEDTAVYYCVRGGSRTLWGQGTLVTVSS
RESULT: 0.0118 s⁻¹

QUERY: Would you mind doing TIGIT-SC103 (Fc fusion, VHH-Fc fusion in assay) VHH: EVQLVESGGGLVQPGGSLRLSCAASGTITSAVFMGWFRQAPGKEREFVAAISWSGGDTNYADSVKGRFTISADNSKNTAYLQMNSLKPEDTAVYYCARWGGITFGGVYPLDYWGQGTLVTVSS as well?
RESULT: 0.00498 s⁻¹

***
QUERY: What does the data say about its koff? Entry: TIGIT-SC42 (Fc fusion, VHH-Fc fusion in assay) VHH: EVQLVESGGGLVQPGGSLRLSCAASGNTFSGGFMGWFRQAPGKEREWVATVLRGGYTWYADSVKGRFTISADNSKNTAYLQMNSLKPEDTAVYYCASGGFLASWGQGTLVTVSS
RESULT: 0.197 s⁻¹

QUERY: What do we get for TIGIT-SC40 (Fc fusion, VHH-Fc fusion in assay) VHH: EVQLVESGGGLVQPGGSLRLSCAASGFSFDRWAMGWFRQAPGKERELVARISWNGGSTYYADSVKGRFTISADNSKNTAYLQMNSLKPEDTAVYYCARDDGWLQFMHWGQGTLVTVSS ?
RESULT: 0.0015 s⁻¹

QUERY: Here is the next binder: TIGIT-SC31 (Fc fusion, VHH-Fc fusion in assay) VHH: EVQLVESGGGLVQPGGSLRLSCAASGRAFESYAMGWFRQAPGKERELVATIGWSGTDYADSVKGRFTISADNSKNTAYLQMNSLKPEDTAVYYCAKGYTSGLSDWGQGTLVTVSS
RESULT: 0.0062 s⁻¹

QUERY: What do we get for TIGIT-SC193 (Fc fusion, VHH-Fc fusion in assay) VHH: EVQLVESGGGLVQPGGSLRLSCAASGFTFSDYWMGWFRQAPGKEREFVAAISRSGTLKAYADSVKGRFTISADNSKNTAYLQMNSLKPEDTAVYYCARGSGWPKIHFDYWGQGTLVTVSS ?
RESULT: 0.178 s⁻¹
